# STUDY_SYSTEM: T1, cynomolgus soluble ULBP2/6 (cULBP2/6) (cynomolgus, UniProt Q5VY80 28-217 (human entry), limits assumed)
# T1 construct: also called cyno ULBP6; Cyno-cULBP2/6
# T1 chain: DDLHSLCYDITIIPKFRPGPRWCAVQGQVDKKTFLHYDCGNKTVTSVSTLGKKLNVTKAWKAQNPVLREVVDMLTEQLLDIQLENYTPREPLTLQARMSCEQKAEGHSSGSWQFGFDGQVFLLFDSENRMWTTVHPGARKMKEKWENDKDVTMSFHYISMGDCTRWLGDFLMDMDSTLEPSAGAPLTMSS
# TEST_NAME: SPR (BIACORE 8K, 37 C); antibody captured on Protein A, soluble ULBP injected;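 further: ligand injected as threefold dilution series in HBS-P (highest 10 or 50 nM), reference-cell and buffer-subtracted sensorgrams fitted with a 1:1 Langmuir model for on and off rates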
Recorded pKd by entry
Reminder that pKd is minus the log10 of a molar concentration.

Examples with their reported pKd follow.
BINDER	pKd
humanized 8E11 (h8E11), Fc version not stated (antibody, V domains shown, Recombinant humanized antibody, hIgG1 backbone with kappa light chain; also called PUR3926) VH: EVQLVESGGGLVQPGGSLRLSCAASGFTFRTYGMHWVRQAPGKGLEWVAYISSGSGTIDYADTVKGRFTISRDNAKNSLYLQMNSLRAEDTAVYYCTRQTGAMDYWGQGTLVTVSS VL: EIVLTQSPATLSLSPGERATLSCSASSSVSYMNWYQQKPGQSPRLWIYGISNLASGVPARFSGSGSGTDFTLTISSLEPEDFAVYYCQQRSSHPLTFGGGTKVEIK	7.94
humanized 7B3 (h7B3), Fc version not stated (antibody, V domains shown, Recombinant humanized antibody, hIgG1 backbone with kappa light chain; also called hu7B3; PUR3922) VH: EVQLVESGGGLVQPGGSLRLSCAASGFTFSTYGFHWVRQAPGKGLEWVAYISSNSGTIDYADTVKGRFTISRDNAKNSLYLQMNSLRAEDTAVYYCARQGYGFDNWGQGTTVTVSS VL: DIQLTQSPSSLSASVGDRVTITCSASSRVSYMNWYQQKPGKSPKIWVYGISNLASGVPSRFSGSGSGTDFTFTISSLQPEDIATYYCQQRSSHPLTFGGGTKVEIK	9.42

Output measured pKd for this item: humanized 6E1 (h6E1), Fc version not stated (antibody, V domains shown, Recombinant humanized antibody, hIgG1 backbone with kappa light chain; also called hu6E1; PUR3993) VH: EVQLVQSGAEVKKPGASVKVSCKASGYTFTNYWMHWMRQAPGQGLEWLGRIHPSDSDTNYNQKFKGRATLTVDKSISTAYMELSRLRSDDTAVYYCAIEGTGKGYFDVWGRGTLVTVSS VL: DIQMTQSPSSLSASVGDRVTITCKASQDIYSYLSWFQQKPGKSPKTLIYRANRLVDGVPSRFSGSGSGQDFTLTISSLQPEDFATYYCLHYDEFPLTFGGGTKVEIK
9.38

Output measured pKd for this item: humanized 1D4 (h1D4), Fc version not stated (antibody, V domains shown, Recombinant humanized antibody, hIgG1 backbone with kappa light chain; also called hiD4; hu1D4) VH: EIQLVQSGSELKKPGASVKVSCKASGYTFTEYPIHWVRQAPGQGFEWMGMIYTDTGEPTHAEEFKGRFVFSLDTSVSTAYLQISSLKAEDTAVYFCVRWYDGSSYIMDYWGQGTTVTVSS VL: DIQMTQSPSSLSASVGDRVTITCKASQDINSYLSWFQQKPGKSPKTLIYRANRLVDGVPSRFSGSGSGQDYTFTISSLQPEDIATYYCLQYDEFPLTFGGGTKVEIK
9.82
